- Target Or System: IKKε (Homo sapiens (Human))
- Sequence (Q14164 whole entry): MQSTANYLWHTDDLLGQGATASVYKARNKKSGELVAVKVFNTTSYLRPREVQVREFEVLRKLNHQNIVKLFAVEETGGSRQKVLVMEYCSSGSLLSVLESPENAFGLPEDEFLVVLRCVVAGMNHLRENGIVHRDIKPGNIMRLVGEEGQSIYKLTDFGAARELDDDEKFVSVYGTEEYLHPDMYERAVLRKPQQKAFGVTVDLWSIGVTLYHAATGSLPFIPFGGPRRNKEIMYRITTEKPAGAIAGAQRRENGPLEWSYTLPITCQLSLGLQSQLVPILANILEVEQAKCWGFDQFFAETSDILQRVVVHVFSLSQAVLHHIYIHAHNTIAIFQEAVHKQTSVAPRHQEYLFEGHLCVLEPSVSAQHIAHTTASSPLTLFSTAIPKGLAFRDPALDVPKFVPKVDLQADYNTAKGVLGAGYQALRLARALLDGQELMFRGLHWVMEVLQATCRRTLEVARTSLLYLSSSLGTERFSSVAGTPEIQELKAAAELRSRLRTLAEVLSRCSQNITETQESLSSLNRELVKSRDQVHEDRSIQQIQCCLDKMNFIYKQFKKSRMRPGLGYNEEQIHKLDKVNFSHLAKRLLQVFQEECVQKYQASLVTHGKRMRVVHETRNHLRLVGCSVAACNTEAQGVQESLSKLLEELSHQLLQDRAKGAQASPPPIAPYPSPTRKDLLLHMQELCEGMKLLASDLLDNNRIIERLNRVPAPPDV
- Procedure Summary: IKKε TR-FRET enzymatic assay
- Type: biochemical
- Reported Conditions: TR-FRET, 2×Km ATP; geometric mean of minimum four determinations; read-out: IKKe IC50
// reported IC50 per item

{"columns": ["Molecule", "Measurement Units", "IC50"],
 "data": [
  ["C[C@H](O)C(=O)N1CC[C@H](Oc2ccc(-c3ncnc(Nc4ccc(-c5ccn(C)c(=O)c5)cc4)n3)cc2C#N)[C@H](F)C1 [Example 476]", "nM", 3],
  ["CC(C)(O)CC(=O)N1CC[C@H](Oc2ccc(-c3ncnc(Nc4ccc(N5CCN(C6COC6)CC5)cc4)n3)cc2C#N)[C@H](F)C1 [Example 553]", "nM", 51],
  ["CCn1cc(Nc2ncnc(-c3ccc(O[C@H]4CCN(C(=O)[C@H](C)O)C[C@H]4F)c(C#N)c3)n2)c(C)n1 [Example 568]", "nM", 21],
  ["N#Cc1cc(-c2ncnc(Nc3ccc(N4CCN(C5COC5)CC4)cc3)n2)ccc1O[C@H]1CCN(C(=O)C2CC(O)C2)C[C@H]1F (stereo partly shown) [Example 550]", "nM", 36],
  ["CCn1ncc(Nc2ncnc(-c3ccc(O[C@H]4CCN(C(=O)CO)C[C@H]4F)c(C#N)c3)n2)n1 [Example 503]", "nM", 20],
  ["C[C@H](O)C(=O)N1CC[C@H](Oc2ccc(-c3ncnc(Nc4ccc(N5CCN(C6COC6)CC5=O)cc4)n3)cc2C#N)[C@H](F)C1 [Example 462]", "nM", 4],
  ["C[C@H](O)C(=O)N1CC[C@H](Oc2ccc(-c3ncnc(Nc4cnn(C)c4CO)n3)cc2C#N)[C@H](F)C1 [Example 565]", "nM", 126],
  ["N#Cc1cc(-c2ncnc(Nc3ccc(N4CCN(C5COC5)CC4)cc3)n2)ccc1O[C@H]1CCN(C(=O)C2(O)COC2)C[C@H]1F [Example 472]", "nM", 43],
  ["COc1cc(Nc2ncnc(-c3ccc(O[C@@H]4CCC(=O)NC4)c(C#N)c3)n2)ccc1N1CCN(C2COC2)CC1 [Example 531]", "nM", 3],
  ["N#Cc1cc(-c2ncnc(Nc3ccc(N4CCN(C5COC5)CC4)cc3)n2)ccc1O[C@H]1CCN(C(=O)c2cnco2)C[C@H]1F [Example 473]", "nM", 3],
  ["COc1cc(Nc2ncnc(-c3ccc(O[C@H]4CCN(C(=O)[C@H](C)O)C[C@H]4F)c(C#N)c3)n2)ccc1S(C)(=O)=O [Example 483]", "nM", 6],
  ["Cc1cc(Nc2ncnc(-c3ccc(O[C@H]4CCN(C(=O)CC#N)C[C@H]4F)c(C#N)c3)n2)ccc1C1CCN(C)CC1 [Example 488]", "nM", 1],
  ["N#Cc1cc(-c2ncnc(Nc3ccc(N4CCN(C5COC5)CC4)cc3)n2)ccc1O[C@H]1CCN(c2ccccn2)C[C@H]1F [Example 480]", "nM", 180]
]}

----------
- Target Or System: UniProtKB Q9UHD2
- Sequence (Q9UHD2 whole entry): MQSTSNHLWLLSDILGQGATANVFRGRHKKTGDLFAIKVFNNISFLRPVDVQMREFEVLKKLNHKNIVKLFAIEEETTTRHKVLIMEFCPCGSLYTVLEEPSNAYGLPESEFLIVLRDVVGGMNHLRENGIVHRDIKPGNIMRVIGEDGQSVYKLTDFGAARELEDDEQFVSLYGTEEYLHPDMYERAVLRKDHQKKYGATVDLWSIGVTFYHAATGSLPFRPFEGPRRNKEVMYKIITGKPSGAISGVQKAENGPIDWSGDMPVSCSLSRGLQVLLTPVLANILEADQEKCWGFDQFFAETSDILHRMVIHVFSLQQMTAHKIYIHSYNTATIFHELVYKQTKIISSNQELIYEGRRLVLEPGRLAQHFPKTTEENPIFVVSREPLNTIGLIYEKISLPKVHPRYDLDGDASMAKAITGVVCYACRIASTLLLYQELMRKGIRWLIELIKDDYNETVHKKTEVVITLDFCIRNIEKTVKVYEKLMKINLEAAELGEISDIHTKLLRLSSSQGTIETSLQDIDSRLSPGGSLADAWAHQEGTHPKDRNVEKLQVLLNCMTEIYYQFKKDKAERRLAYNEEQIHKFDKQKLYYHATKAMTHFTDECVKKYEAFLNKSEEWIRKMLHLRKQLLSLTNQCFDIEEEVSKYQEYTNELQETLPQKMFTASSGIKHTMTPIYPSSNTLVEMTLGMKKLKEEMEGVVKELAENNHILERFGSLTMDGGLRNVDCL
- Procedure Summary: TBK1 TR-FRET enzymatic assay;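 also: phosphorylation of a biotinylated Ser/Thr peptide by purified full-length recombinant TBK1, read by TR-FRET after 240 min at 25 °C, IC50 is the geometric mean of at least four runs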
Readout Type: IC50 (nM)

{"columns": ["Compound", "Measurement Units", "Measured Number"],
 "data": [
  ["C[C@@H]1CN(c2ccc(Nc3ncnc(-c4ccc(O[C@H]5CCN(C(=O)[C@@H](C)O)CC5(F)F)c(C#N)c4)n3)cc2)CCN1C1COC1 [Example 248]", "nM", 3],
  ["N#Cc1cc(-c2ncnc(Nc3ccc(N4CCN(C5COC5)CC4)cc3)n2)ccc1O[C@H]1CCN(C(=O)c2cccc(=O)[nH]2)C[C@H]1F [Example 413]", "nM", 3],
  ["N#Cc1cc(-c2ncnc(Nc3ccc(N4CCN(C5COC5)CC4)cc3)n2)ccc1N1CC2(CCO2)C1 [Example 210]", "nM", 26],
  ["C[C@H]1CN(C2COC2)CCN1c1ccc(Nc2ncnc(-c3ccc(O[C@H]4CCN(C(=O)c5cnn[nH]5)C[C@H]4F)c(C#N)c3)n2)cc1 [Example 255]", "nM", 4],
  ["N#Cc1cc(-c2ncnc(Nc3ccc(N4CCN(C5COC5)CC4)cc3)n2)ccc1NC(=O)CC(F)(F)F [Example 496]", "nM", 6],
  ["Cn1cc(C(=O)N2CC[C@H](Oc3ccc(-c4ncnc(Nc5ccc(N6CCN(C7COC7)CC6)cc5)n4)cc3C#N)[C@H](F)C2)nn1 [Example 147]", "nM", 3],
  ["C[C@H](O)C(=O)N1CC[C@H](Oc2ccc(-c3ncnc(Nc4ccc(N5CCN(C6COC6)[C@H](C)C5)cc4)n3)cc2C#N)C(F)(F)C1 [Example 246]", "nM", 2],
  ["CC1(C)CN(C(=O)CO)CC(F)C1Oc1ccc(-c2ncnc(Nc3ccc(N4CCN(C5COC5)CC4)cc3)n2)cc1C#N (stereo not shown) [Example 177]", "nM", 6],
  ["N#Cc1cc(-c2ncnc(Nc3ccc(N4CCN(C5COC5)CC4)cc3)n2)ccc1OCCN1CCN(C(N)=O)CC1 [Example 606]", "nM", 503],
  ["CS(=O)(=O)c1ccc(Nc2ncnc(-c3ccc(OC4CCN(C(=O)CO)CC4)c(C#N)c3)n2)cc1 [Example 57]", "nM", 5],
  ["Cn1cc(C(=O)N2C[C@@H](F)[C@@H](Oc3ccc(-c4ncnc(Nc5ccc(N6CCN(C7COC7)CC6)cc5)n4)cc3C#N)C(C)(C)C2)nn1 [Example 441]", "nM", 3],
  ["Cc1cc(Nc2ncnc(-c3ccc(O[C@H]4CCN(C(=O)c5cn(C)nn5)C[C@H]4F)c(C#N)c3)n2)ccc1C1CCN(C)CC1 [Example 485]", "nM", 3],
  ["N#Cc1cc(-c2ncnc(Nc3ccc(N4CCS(=O)(=O)CC4)cc3)n2)ccc1OC1CCOCC1 [Example 1]", "nM", 2]
]}
